Reported Cmax values follow for various compounds
test: Plasma pharmacokinetics on cycle 1, day 15 (LC/MS, noncompartmental analysis); type: in vivo, human; conditions: human, plasma, oral, Dose Level 2: neratinib 200mg/day + everolimus 5mg/day, n=3; Cycle 1, Day 15; mean (range)
readout kind: Cmax (ng/mL)

# mol, result unit, recorded value
records = [
    ("CO[C@H]1C[C@@H]2CC[C@@H](C)[C@@](O)(O2)C(=O)C(=O)N2CCCC[C@H]2C(=O)O[C@H]([C@H](C)C[C@@H]2CC[C@@H](OCCO)[C@H](OC)C2)CC(=O)[C@H](C)/C=C(\\C)[C@@H](O)[C@@H](OC)C(=O)[C@H](C)C[C@H](C)/C=C/C=C/C=C/1C", "ng/mL", 3.58),
    ("CCOc1cc2ncc(C#N)c(Nc3ccc(OCc4ccccn4)c(Cl)c3)c2cc1NC(=O)/C=C/CN(C)C", "ng/mL", 35.8),
]

----------
Assay: Plasma pharmacokinetics on cycle 1, day 15 (LC/MS, noncompartmental analysis)
Assay type: in vivo, human
Details: human, plasma, oral, Dose Level 4: neratinib 240mg/day + everolimus 7.5mg/day, n=5; Cycle 1, Day 15; mean (range)
Experimental: Pharmacokinetic (PK) analysis was conducted on cycle 1, day 15 for both everolimus and neratinib with blood samples collected at pre-dose, 1, 3, 4, 6, 8, and 24 hours post-dose. Following good clinical and laboratory practices, blood was collected into K2-EDTA vacutainers, gently inverted and mixed, then centrifuged at 3000 rpm (1500 g) for 10 min at 4°C. The resultant plasma was placed into cryovials and frozen at −70°C until analysis.
Reported Cmax values follow for various compounds

# compound, Cmax (ng/mL)
records = [
    ("CO[C@H]1C[C@@H]2CC[C@@H](C)[C@@](O)(O2)C(=O)C(=O)N2CCCC[C@H]2C(=O)O[C@H]([C@H](C)C[C@@H]2CC[C@@H](OCCO)[C@H](OC)C2)CC(=O)[C@H](C)/C=C(\\C)[C@@H](O)[C@@H](OC)C(=O)[C@H](C)C[C@H](C)/C=C/C=C/C=C/1C [Everolimus, everolimus]", 8.5),
    ("CCOc1cc2ncc(C#N)c(Nc3ccc(OCc4ccccn4)c(Cl)c3)c2cc1NC(=O)/C=C/CN(C)C [Neratinib, neratinib]", 83.4),
]

----------
Assay: Plasma pharmacokinetics on cycle 1, day 15 (LC/MS, noncompartmental analysis)
Format: in vivo, human
Settings: human, plasma, oral, Dose Level 2: neratinib 200mg/day + everolimus 5mg/day, n=3; Cycle 1, Day 15; mean (range); read-out: Tmax
Method: Pharmacokinetic (PK) analysis was conducted on cycle 1, day 15 for both everolimus and neratinib with blood samples collected at pre-dose, 1, 3, 4, 6, 8, and 24 hours post-dose. Following good clinical and laboratory practices, blood was collected into K2-EDTA vacutainers, gently inverted and mixed, then centrifuged at 3000 rpm (1500 g) for 10 min at 4°C. The resultant plasma was placed into cryovials and frozen at −70°C until analysis.
Reported Tmax values follow for various molecules

# molecule, Tmax, h
records = [
    ("CO[C@H]1C[C@@H]2CC[C@@H](C)[C@@](O)(O2)C(=O)C(=O)N2CCCC[C@H]2C(=O)O[C@H]([C@H](C)C[C@@H]2CC[C@@H](OCCO)[C@H](OC)C2)CC(=O)[C@H](C)/C=C(\\C)[C@@H](O)[C@@H](OC)C(=O)[C@H](C)C[C@H](C)/C=C/C=C/C=C/1C [Everolimus, everolimus]", 4.33),
    ("CCOc1cc2ncc(C#N)c(Nc3ccc(OCc4ccccn4)c(Cl)c3)c2cc1NC(=O)/C=C/CN(C)C [Neratinib, neratinib]", 4.8),
]

----------
Reported half-life values follow for various molecules
assay: Plasma pharmacokinetics on cycle 1, day 15 (LC/MS, noncompartmental analysis); assay type: in vivo, human; settings: human, plasma, oral, Dose Level 2: neratinib 200mg/day + everolimus 5mg/day, n=3; Cycle 1, Day 15; mean (range)

# mol, half-life [h]
records = [
    ("CO[C@H]1C[C@@H]2CC[C@@H](C)[C@@](O)(O2)C(=O)C(=O)N2CCCC[C@H]2C(=O)O[C@H]([C@H](C)C[C@@H]2CC[C@@H](OCCO)[C@H](OC)C2)CC(=O)[C@H](C)/C=C(\\C)[C@@H](O)[C@@H](OC)C(=O)[C@H](C)C[C@H](C)/C=C/C=C/C=C/1C", 8.2),
    ("CCOc1cc2ncc(C#N)c(Nc3ccc(OCc4ccccn4)c(Cl)c3)c2cc1NC(=O)/C=C/CN(C)C", 13.1),
]

----------
Reported AUC(0-inf) values follow for various compounds
assay: Plasma pharmacokinetics on cycle 1, day 15 (LC/MS, noncompartmental analysis); assay type: in vivo, human; settings: human, plasma, oral, Dose Level 4: neratinib 240mg/day + everolimus 7.5mg/day, n=5; Cycle 1, Day 15; mean (range)
readout kind: AUC(0-inf) (ng·h/mL)

# mol, recorded value
records = [
    ("CCOc1cc2ncc(C#N)c(Nc3ccc(OCc4ccccn4)c(Cl)c3)c2cc1NC(=O)/C=C/CN(C)C", 3930),
    ("CO[C@H]1C[C@@H]2CC[C@@H](C)[C@@](O)(O2)C(=O)C(=O)N2CCCC[C@H]2C(=O)O[C@H]([C@H](C)C[C@@H]2CC[C@@H](OCCO)[C@H](OC)C2)CC(=O)[C@H](C)/C=C(\\C)[C@@H](O)[C@@H](OC)C(=O)[C@H](C)C[C@H](C)/C=C/C=C/C=C/1C", 253),
]

----------
assay: Plasma pharmacokinetics on cycle 1, day 15 (LC/MS, noncompartmental analysis); format: in vivo, human; details: human, plasma, oral, Dose Level 4: neratinib 240mg/day + everolimus 7.5mg/day, n=5; Cycle 1, Day 15; mean (range); read-out: Tmax
readout kind: Tmax (h)

# mol, recorded value
records = [
    ("CCOc1cc2ncc(C#N)c(Nc3ccc(OCc4ccccn4)c(Cl)c3)c2cc1NC(=O)/C=C/CN(C)C", 4.2),
]

----------
assay: Plasma pharmacokinetics on cycle 1, day 15 (LC/MS, noncompartmental analysis); type: in vivo, human; settings: human, plasma, oral, Dose Level 2: neratinib 200mg/day + everolimus 5mg/day, n=3; Cycle 1, Day 15; mean (range)

# mol, result unit, AUC(0-inf)
measured = [
    ("CO[C@H]1C[C@@H]2CC[C@@H](C)[C@@](O)(O2)C(=O)C(=O)N2CCCC[C@H]2C(=O)O[C@H]([C@H](C)C[C@@H]2CC[C@@H](OCCO)[C@H](OC)C2)CC(=O)[C@H](C)/C=C(\\C)[C@@H](O)[C@@H](OC)C(=O)[C@H](C)C[C@H](C)/C=C/C=C/C=C/1C", "ng·h/mL", 53.8),
]

----------
Reported AUC(0-t) values follow for various compounds
assay: Plasma pharmacokinetics on cycle 1, day 15 (LC/MS, noncompartmental analysis); format: in vivo, human; details: human, plasma, oral, Dose Level 4: neratinib 240mg/day + everolimus 7.5mg/day, n=5; Cycle 1, Day 15; mean (range); read-out: AUC0-24
readout kind: AUC(0-t)

# mol, readout kind, recorded value
records = [
    ("CO[C@H]1C[C@@H]2CC[C@@H](C)[C@@](O)(O2)C(=O)C(=O)N2CCCC[C@H]2C(=O)O[C@H]([C@H](C)C[C@@H]2CC[C@@H](OCCO)[C@H](OC)C2)CC(=O)[C@H](C)/C=C(\\C)[C@@H](O)[C@@H](OC)C(=O)[C@H](C)C[C@H](C)/C=C/C=C/C=C/1C", "AUC(0-t)", "0.116 µg·h/mL"),
    ("CCOc1cc2ncc(C#N)c(Nc3ccc(OCc4ccccn4)c(Cl)c3)c2cc1NC(=O)/C=C/CN(C)C", "AUC(0-t)", "1.17 µg·h/mL"),
]

----------
test: Plasma pharmacokinetics on cycle 1, day 15 (LC/MS, noncompartmental analysis); assay type: in vivo, human; conditions: human, plasma, oral, Dose Level 2: neratinib 200mg/day + everolimus 5mg/day, n=3; Cycle 1, Day 15; mean (range); read-out: Ctau or C24
Reported concentration at 24 h values follow for various compounds

# compound, concentration at 24 h, ng/mL
measured = [
    ("CCOc1cc2ncc(C#N)c(Nc3ccc(OCc4ccccn4)c(Cl)c3)c2cc1NC(=O)/C=C/CN(C)C [Neratinib, neratinib]", 13.6),
    ("CO[C@H]1C[C@@H]2CC[C@@H](C)[C@@](O)(O2)C(=O)C(=O)N2CCCC[C@H]2C(=O)O[C@H]([C@H](C)C[C@@H]2CC[C@@H](OCCO)[C@H](OC)C2)CC(=O)[C@H](C)/C=C(\\C)[C@@H](O)[C@@H](OC)C(=O)[C@H](C)C[C@H](C)/C=C/C=C/C=C/1C [Everolimus, everolimus]", 0.42),
]

----------
Reported half-life values follow for various compounds
assay: Plasma pharmacokinetics on cycle 1, day 15 (LC/MS, noncompartmental analysis); assay type: in vivo, human; details: human, plasma, oral, Dose Level 4: neratinib 240mg/day + everolimus 7.5mg/day, n=5; Cycle 1, Day 15; mean (range)

# mol, half-life (min)
records = [
    ("CO[C@H]1C[C@@H]2CC[C@@H](C)[C@@](O)(O2)C(=O)C(=O)N2CCCC[C@H]2C(=O)O[C@H]([C@H](C)C[C@@H]2CC[C@@H](OCCO)[C@H](OC)C2)CC(=O)[C@H](C)/C=C(\\C)[C@@H](O)[C@@H](OC)C(=O)[C@H](C)C[C@H](C)/C=C/C=C/C=C/1C", 1010),
    ("CCOc1cc2ncc(C#N)c(Nc3ccc(OCc4ccccn4)c(Cl)c3)c2cc1NC(=O)/C=C/CN(C)C", 1720),
]
